Biological target: Human GO (Homo sapiens, UniProt Q9UJM8)
Construct: purchased Novus Biologicals NBP1-72412
Sequence (Q9UJM8 1-370): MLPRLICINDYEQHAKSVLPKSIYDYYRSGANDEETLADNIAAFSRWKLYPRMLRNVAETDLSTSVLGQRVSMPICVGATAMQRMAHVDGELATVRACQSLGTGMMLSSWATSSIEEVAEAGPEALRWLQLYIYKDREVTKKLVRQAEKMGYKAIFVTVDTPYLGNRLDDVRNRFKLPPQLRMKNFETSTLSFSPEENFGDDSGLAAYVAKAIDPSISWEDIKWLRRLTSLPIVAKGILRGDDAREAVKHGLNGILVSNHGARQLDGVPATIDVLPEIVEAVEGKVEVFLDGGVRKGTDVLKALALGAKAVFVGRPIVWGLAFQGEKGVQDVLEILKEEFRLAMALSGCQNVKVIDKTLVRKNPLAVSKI
Assay: GO enzymatic assay (coupled fluorescence/HRP assay, glycolate substrate)
Format: biochemical
Details: Table 1; read-out: Range (range of IC50 values calculated from the enzymatic assays)
readout_label: IC50

Request: # return IC50 of `COC(=O)c1[nH]nnc1Oc1ccc2cc(Br)ccc2c1` (system: Human GO (Homo sapiens, UniProt Q9UJM8))
Response: > 10 µM

Request: GET IC50 where system = Human GO (Homo sapiens, UniProt Q9UJM8) and item = `CC(=O)OCOC(=O)c1[nH]nnc1Oc1ccc(Cl)c(Cl)c1`
Response: < 0.1 µM

Request: Please look at `O=C(O)c1[nH]nnc1-c1ccc(OC(F)(F)F)cc1` and tell me its recorded IC50 on Human GO (Homo sapiens, UniProt Q9UJM8).
Response: 0.1 to 1 µM

Request: Lab note: record IC50 of `O=C(O)c1[nH]nnc1-c1ccc(OC2CCCC2)cc1` tested on Human GO (Homo sapiens, UniProt Q9UJM8).
Response: 0.1 to 1 µM

Request: Lab note: record IC50 of `O=C(O)c1[nH]nnc1Sc1ccc(-c2ccc(OC(F)(F)F)c(Cl)c2)cc1` tested on Human GO (Homo sapiens, UniProt Q9UJM8).
Response: < 0.1 µM
